Documented AUC(0-inf) at 24 h across a set of compounds
# Test Details: Pharmacokinetic studies in Balb/c mice
# Stated Conditions: male, Balb/c, mouse, in vivo, iv, 5 mg/kg

# Compound, AUC(0-inf) at 24 h [ng·h/mL]
rows = [
    ("CCOC(=O)NC(=O)c1ccsc1NC(=O)c1nc2ccccc2s1 [TCA1, reference compound]", 7910),
    ("COC(=O)NC(=O)c1ccsc1NC(=O)c1ccc(C(=O)N2CCCCC2)cc1 [Compound 25a]", 833),
    ("CCOC(=O)NC(=O)c1ccsc1NC(=O)c1ccc(C(=O)N2CCCCC2)c(F)c1 [Compound 24f]", 184),
]
